Target: L5-MG E52D
Settings: yeast cell surface displayed L5-MG E52D; PBS+
Entries and their measured Kd follow.

Request: Need Kd, item "CN(C)c1ccc(C(=C2C=CC(=[N+](C)C)C=C2)c2ccc(OCCCC(=O)NCCNC(=O)CCC(=O)NCCOCCOCCN)cc2)cc1"
Response: < 1 nM

Request: Can you share its Kd? I mean this compound: CC[N+]1=C(/C=C/C=C2/N(CCCCCC(=O)NCC(CNC(=O)CCCCCN3/C(=C/C=C/C4=[N+](CC)c5ccc(S(=O)(=O)O)cc5C4(C)C)C(C)(C)c4cc(S(=O)(=O)[O-])ccc43)OCC(=O)NCCCOc3ccc(C(=C4C=CC(=[N+](C)C)C=C4)c4ccc(N(C)C)cc4)cc3)c3ccc(S(=O)(=O)[O-])cc3C2(C)C)C(C)(C)c2cc(S(=O)(=O)[O-])ccc21 (stereo not drawn)
Response: 4 nM

Now consider the entry below.
Request: Would you kindly share the measured Kd for "CCN1/C(=C\C=C\C2=[N+](CCCCCC(=O)NCCNC(=O)CCCOc3ccc(C(=C4C=CC(=[N+](C)C)C=C4)c4ccc(N(C)C)cc4)cc3)c3ccc(S(=O)(=O)[O-])cc3C2(C)C)C(C)(C)c2cc(S(=O)(=O)[O-])ccc21" ?
Response: < 1 nM

These measurements were taken from patent US9249306B2.
